Recorded melting point by entry

Use the examples below as a reference point.
> print(dat)
                                   compound   readout.name  observed.value
1  O=C(O)C(=O)CC(=O)c1cn(Cc2ccc(F)cc2)c2cc(F)ccc2c1=O [RDS2022]  melting point   162 to 163 °C
2  CCOC(=O)C(=O)CC(=O)c1cn(Cc2ccccc2OC)c2ccccc2c1=O  melting point   154 to 156 °C
3  CCOC(=O)C(=O)CC(=O)c1cn(Cc2ccc(O)cc2)c2ccccc2c1=O  melting point   179 to 181 °C
4  O=C(O)C(=O)CC(=O)c1cn(Cc2ccc(F)cc2)c2cc(N3CCCC3)ccc2c1=O  melting point   197 to 199 °C
5  CCOC(=O)C(=O)CC(=O)c1cn(Cc2c(F)cccc2F)c2ccccc2c1=O [RDS1983]  melting point   172 to 173 °C

## Input Fill blank: measured melting point of the compound CCOC(=O)C(=O)CC(=O)c1cn(Cc2ccccc2F)c2ccccc2c1=O [RDS1989] is ____.
## Output 152 to 153 °C

## Input Fill blank: measured melting point of the compound CCOC(=O)C(=O)CC(=O)c1cn(Cc2ccccc2F)c2cc(Cl)ccc2c1=O is ____.
## Output 173 to 175 °C
